Cited source: patent US4189604A

Target: aminopeptidase B (Rattus norvegicus)
Construct: aminopeptidase B solution which is prepared by Sephadex 100 chromatography as described by Hopusu et al; from tissue
Test: Inhibitory activity against aminopeptidase B
Format: biochemical
Conditions: pH 7.0, 37° C., 30 minutes; Table 1
Hi all, reminder that labels come from ID50, split as class 0 (below 0.2 µg/mL), class 1 (0.2 µg/mL to below 4 µg/mL), class 2 (4 µg/mL or more)

molecule | category
N[C@H](Cc1ccccc1)[C@H](O)C(=O)N[C@@H](CCC(=O)O)C(=O)O [No. 14] | class 2
CC(C)C[C@H](NC(=O)C(O)[C@H](N)c1ccccc1)C(=O)O (stereo partly shown) [No. 18] | class 2
N[C@H](Cc1ccccc1)[C@H](O)C(=O)NCC(=O)O [No. 5] | class 2
CC(C)C[C@H](NC(=O)[C@@H](O)[C@H](N)Cc1ccccc1)C(=O)O [No. 1] | class 0
Cc1ccc(CC(N)C(O)C(=O)N[C@@H](CC(C)C)C(=O)O)cc1 (stereo partly shown) [No. 21] | class 0
CC(C)C[C@H](NC(=O)C(O)[C@H](N)CC(C)C)C(=O)O (stereo partly shown) [No. 17] | class 2
CC(C)C[C@H](NC(=O)[C@@H](O)[C@H](N)Cc1ccc(N)cc1)C(=O)O [No. 23] | class 0
CSCC[C@H](NC(=O)[C@@H](O)[C@H](N)Cc1ccccc1)C(=O)O [No. 8] | class 1
CC(C)C[C@H](NC(=O)[C@@H](O)[C@@H](N)Cc1ccccc1)C(=O)O [No. 2] | class 1
CCCCCCC(NC(=O)[C@@H](O)[C@H](N)Cc1ccccc1)C(=O)O (stereo partly shown) [No. 15] | class 1
NC(=O)CC[C@H](NC(=O)[C@@H](O)[C@H](N)Cc1ccccc1)C(=O)O [No. 9] | class 1
CC(C)C[C@@H](NC(=O)[C@@H](O)[C@H](N)Cc1ccccc1)C(=O)O [No. 3] | class 1
CC(C)C[C@H](NC(=O)[C@@H](O)[C@H](N)Cc1ccc([N+](=O)[O-])cc1)C(=O)O [No. 22] | class 0
CC(C)C[C@H](NC(=O)C(O)[C@@H](C)N)C(=O)O (stereo partly shown) [No. 16] | class 2
N[C@H](Cc1ccccc1)[C@H](O)C(=O)N[C@@H](Cc1ccccc1)C(=O)O [No. 12] | class 2
CCCC[C@H](NC(=O)[C@@H](O)[C@H](N)Cc1ccccc1)C(=O)O [No. 11] | class 0

---

Molecular target: aminopeptidase B (Rattus norvegicus, UniProt O09175)
Construct: aminopeptidase B solution which is prepared by Sephadex 100 chromatography as described by Hopusu et al; from tissue
Sequence (O09175 whole entry): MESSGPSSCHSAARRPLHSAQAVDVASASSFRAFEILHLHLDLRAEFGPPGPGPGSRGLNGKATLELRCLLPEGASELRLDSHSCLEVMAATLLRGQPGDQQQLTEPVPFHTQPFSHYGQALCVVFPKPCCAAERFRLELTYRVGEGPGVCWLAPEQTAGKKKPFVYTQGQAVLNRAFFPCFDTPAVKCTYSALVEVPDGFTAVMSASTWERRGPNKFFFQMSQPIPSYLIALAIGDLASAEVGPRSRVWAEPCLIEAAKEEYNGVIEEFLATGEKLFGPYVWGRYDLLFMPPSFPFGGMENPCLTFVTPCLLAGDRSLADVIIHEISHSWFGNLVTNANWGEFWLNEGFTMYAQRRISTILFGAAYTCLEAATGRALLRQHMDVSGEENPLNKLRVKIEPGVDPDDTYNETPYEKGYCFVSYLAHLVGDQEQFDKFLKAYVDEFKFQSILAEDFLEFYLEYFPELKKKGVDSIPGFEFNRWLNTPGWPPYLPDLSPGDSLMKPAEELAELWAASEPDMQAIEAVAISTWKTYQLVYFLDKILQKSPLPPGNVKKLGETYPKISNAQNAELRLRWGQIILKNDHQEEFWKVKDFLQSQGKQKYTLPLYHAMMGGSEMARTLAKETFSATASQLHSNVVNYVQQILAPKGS
Experiment: Inhibitory activity against aminopeptidase B
Type: biochemical
Settings: pH 7.0, 37° C., 30 minutes; Table 1; read-out: ID50 (the source's name) (converted)

entry smiles | test target | IC50 [µM]
N[C@H](Cc1ccccc1)[C@H](O)C(=O)N[C@@H](CO)C(=O)O | aminopeptidase B (Rattus norvegicus, UniProt O09175) | 2.55
CC(C)C[C@@H](NC(=O)[C@@H](O)[C@@H](N)Cc1ccccc1)C(=O)O | aminopeptidase B (Rattus norvegicus, UniProt O09175) | 0.13
CC[C@H](C)[C@H](NC(=O)[C@@H](O)[C@H](N)Cc1ccccc1)C(=O)O | aminopeptidase B (Rattus norvegicus, UniProt O09175) | 0.162
CC(C)C[C@H](NC(=O)[C@@H](O)[C@H](N)CC1CCCCC1)C(=O)O | aminopeptidase B (Rattus norvegicus, UniProt O09175) | 3.34
